test system: NCI-H522 lung; assay: NCI tumour cell line growth inhibition, 48 h
The following compounds are listed with their measured TGI values.

Take a look at these entries with their results.
compound=Cc1cccc(-c2nc(-c3cnccn3)n(Cc3ccccc3)n2)c1 result="> 100 µM"
compound="CCOC(=O)CC1Nc2ccccc2C12CCc1c([nH]c3ccccc13)C2C(=O)OCC (stereo not drawn)" result="> 100 µM"

Challenge: Please look up its TGI: `O=C1c2ccccc2C(=O)N1NC1=NCCN1`
Response given: > 100 µM

---

tested on: SW-620 colon; assay: NCI tumour cell line growth inhibition, 48 h
measurement_name: TGI

Take a look at these entries with their results.
compound="CCCCCCCCCCCCCCCCCC[S+](C)CC (configuration not stated)" measurement_name=TGI result="2.89 µM"
compound=CC/C(=C(/c1ccc(OCCN(C)C)cc1)c1ccc(OC(=O)CCCCCCCCC(=O)c2c(C)[nH]c(/C=C3\N=C(c4ccc[nH]4)C=C3OC)c2C)cc1)c1ccccc1 measurement_name=TGI result="14 µM"
compound=O=C(Nc1ccc(Cl)cc1)c1cc(S(=O)(=O)N2CCNNC2=O)c(S)cc1Cl measurement_name=TGI result="> 100 µM"

Kindly review the next compound as well.
Challenge: Please look up its TGI: Cc1ccc(NC(=O)CC2SC(=Nc3ccc(Cl)cc3)NC2=O)cc1C (configuration not stated)
Response given: 18.5 µM

---

The following compounds are listed with their measured TGI values.
test system: MCF7 breast; assay: NCI tumour cell line growth inhibition, 48 h

compound=O=C(Nc1cccc(-n2cc(-c3ccncc3)c(-c3ccc(Cl)c(O)c3)n2)c1)Nc1ccc(Cl)c(Cl)c1 result="> 32.5 µM"
compound=CCOc1cc2c(cc1O)C(=O)C[C@@H]1[C@@H]2CC[C@]2(C)[C@@H](O)CC[C@@H]12 result="> 100 µM"
compound=NS(=O)(=O)c1ccc(NC(=O)c2ccc3nc4ccccc4c(Nc4ccc(S(N)(=O)=O)cc4)c3c2)cc1 result="> 100 µM"
compound=COC(=O)C1Cc2cc3c(cc2C1)CCC3 result="> 100 µM"
compound=Cc1ccc(S(=O)(=O)Nn2c(S)c(C#N)c(-c3ccc(Cl)cc3)c(C#N)c2=O)cc1 result="> 100 µM"

Challenge: Please look up its TGI: `Cc1cccc(-c2nc(-c3cnccn3)n(Cc3ccccc3)n2)c1`
Response given: > 100 µM

Challenge: Please look up its TGI: CC1(C)N([O-])[N+](=O)C1(C)O (configuration not stated)
Response given: > 100 µM

Challenge: Please look up its TGI: `O=C(N/N=C/c1ccncc1)c1ccc(F)cc1`
Response given: > 40 µM

Challenge: Please look up its TGI: `C[C@]12CC[C@@H]3c4ccc(OC(=O)N(CCCl)CCCl)cc4CC[C@H]3[C@@H]1CC[C@@H]2OP(=O)(O)O`
Response given: > 100 µM

---

The following compounds are listed with their measured TGI values.
tested on: DMS 273 small cell lung; assay: NCI tumour cell line growth inhibition, 48 h

Take a look at these entries with their results.
compound="CC[As](CC)SCC1OC(OC(C)=O)C(OC(C)=O)C(OC(C)=O)C1OC(C)=O (stereo not drawn)" result="29.4 µM"
compound="C[C@]12CCc3nn(-c4ccccc4)nc3C1CC[C@@H]1C2CC[C@]2(C)C(=O)CCC12 (stereo partly drawn)" result="> 100 µM"

Kindly review the next compound as well.
Challenge: Please look up its TGI: `O=C(CC(=O)c1cccc([N+](=O)[O-])c1)C(=O)Nc1ccccc1`
Response given: > 100 µM
